# Test system: Toll-like receptor 7 (Homo sapiens, UniProt Q9NYK1)
# Sequence (Q9NYK1 whole entry): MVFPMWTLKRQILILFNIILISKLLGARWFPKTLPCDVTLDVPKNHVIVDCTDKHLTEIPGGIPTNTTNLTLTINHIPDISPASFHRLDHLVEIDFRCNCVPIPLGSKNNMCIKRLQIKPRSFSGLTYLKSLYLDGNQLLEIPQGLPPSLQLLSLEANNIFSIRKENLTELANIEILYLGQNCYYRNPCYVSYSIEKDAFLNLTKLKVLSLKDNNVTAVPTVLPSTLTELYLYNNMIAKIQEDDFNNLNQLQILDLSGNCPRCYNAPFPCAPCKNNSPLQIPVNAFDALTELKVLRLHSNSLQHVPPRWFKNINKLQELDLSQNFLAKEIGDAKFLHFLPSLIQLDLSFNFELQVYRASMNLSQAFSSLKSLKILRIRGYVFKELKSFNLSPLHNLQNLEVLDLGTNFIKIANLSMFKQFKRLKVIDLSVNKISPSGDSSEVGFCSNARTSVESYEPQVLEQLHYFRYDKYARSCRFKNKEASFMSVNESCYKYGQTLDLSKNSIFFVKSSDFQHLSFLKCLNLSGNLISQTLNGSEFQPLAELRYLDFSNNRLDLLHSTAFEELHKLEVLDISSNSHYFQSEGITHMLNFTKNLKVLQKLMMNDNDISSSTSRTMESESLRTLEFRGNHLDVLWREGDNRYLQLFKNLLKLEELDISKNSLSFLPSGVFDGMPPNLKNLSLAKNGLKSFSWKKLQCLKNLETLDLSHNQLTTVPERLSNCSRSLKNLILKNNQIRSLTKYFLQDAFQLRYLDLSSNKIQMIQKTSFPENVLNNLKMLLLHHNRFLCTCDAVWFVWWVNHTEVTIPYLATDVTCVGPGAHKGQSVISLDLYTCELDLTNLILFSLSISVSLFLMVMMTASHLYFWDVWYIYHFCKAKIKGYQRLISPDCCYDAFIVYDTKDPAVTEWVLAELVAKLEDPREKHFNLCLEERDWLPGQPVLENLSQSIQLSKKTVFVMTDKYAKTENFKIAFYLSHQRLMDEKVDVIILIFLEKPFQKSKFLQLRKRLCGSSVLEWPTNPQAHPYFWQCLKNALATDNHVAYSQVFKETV
# Assay comment: Antagonist activity at TLR7 in human PBMC incubated for 3 hrs by TR-FRET assay
# Type: cell-based
Observable: IC50

Item `CCN(C)CC(=O)NC12CCC(Cn3nc(C)c4c3CCN(c3cc(C)nc5c3cnn5C)C4)(CC1)CC2` ; assay system Toll-like receptor 7 (Homo sapiens, UniProt Q9NYK1); IC50 reported as < 0.5 nM

* * *

# Test system: Toll-like receptor 7 (Homo sapiens)
# Sequence (Q9NYK1 whole entry): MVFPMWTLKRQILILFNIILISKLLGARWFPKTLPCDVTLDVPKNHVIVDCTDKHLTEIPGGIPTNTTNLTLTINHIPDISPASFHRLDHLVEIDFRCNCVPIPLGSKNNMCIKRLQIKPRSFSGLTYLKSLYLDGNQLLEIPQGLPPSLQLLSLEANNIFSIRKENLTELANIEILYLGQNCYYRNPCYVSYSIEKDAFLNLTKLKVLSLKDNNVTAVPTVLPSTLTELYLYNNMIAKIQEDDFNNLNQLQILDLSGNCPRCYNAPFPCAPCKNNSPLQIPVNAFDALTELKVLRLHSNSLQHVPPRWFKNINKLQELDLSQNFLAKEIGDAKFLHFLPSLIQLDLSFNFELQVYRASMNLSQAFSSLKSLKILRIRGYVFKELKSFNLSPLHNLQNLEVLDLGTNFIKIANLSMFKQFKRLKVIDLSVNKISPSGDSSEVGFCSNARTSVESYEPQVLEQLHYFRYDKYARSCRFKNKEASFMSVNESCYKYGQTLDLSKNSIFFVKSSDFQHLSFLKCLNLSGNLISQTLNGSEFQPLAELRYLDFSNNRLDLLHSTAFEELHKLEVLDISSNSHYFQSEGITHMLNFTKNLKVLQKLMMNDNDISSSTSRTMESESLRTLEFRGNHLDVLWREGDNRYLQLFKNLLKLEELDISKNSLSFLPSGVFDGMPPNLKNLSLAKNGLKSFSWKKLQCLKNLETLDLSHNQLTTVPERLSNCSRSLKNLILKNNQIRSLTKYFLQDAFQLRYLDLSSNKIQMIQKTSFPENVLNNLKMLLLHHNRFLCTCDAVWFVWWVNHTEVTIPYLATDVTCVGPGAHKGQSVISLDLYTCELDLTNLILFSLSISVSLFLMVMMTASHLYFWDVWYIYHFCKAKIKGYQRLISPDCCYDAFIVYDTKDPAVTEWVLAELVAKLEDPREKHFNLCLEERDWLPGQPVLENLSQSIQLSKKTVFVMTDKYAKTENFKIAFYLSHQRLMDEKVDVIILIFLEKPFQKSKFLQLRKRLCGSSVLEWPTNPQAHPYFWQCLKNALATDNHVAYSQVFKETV
# Assay comment: Antagonist activity at R848 stimulated TRL7 in HEK-Blue hTLR7 cells assessed as inhibition of NF kappa B/Ap-1 activation measured after 20 hrs by SEAP reporter assay
# Format: cell-based
Entries and their IC50

{"Compound": "Cc1cc(N2CCOC3(CN(C[C@H]4CN(c5ccc(C#N)c6ncccc56)C[C@@H](C)O4)C3)C2)cc(C)n1", "Test system": "Toll-like receptor 7 (Homo sapiens)", "IC50": "< 3 nM"}

Proceed to the following item.
Form: item COC12CNCC1CN(c1ccc3c(c1)CN1[C@H](C)CN(c4ccc(C#N)c5ncccc45)C[C@H]31)C2 (some centres not stated) ; test system Toll-like receptor 7 (Homo sapiens); IC50: < 3 nM

Attribution: ChEMBL document CHEMBL5096179
